# Tested on: Panel melanoma (Carcinoma cell lines)
# Method Notes: Cytostatic activity against human melanoma cell lines was determined
# Format: functional
log TGI range values by entry
// print number alone

Consider the following illustrative entries.
# Compound, Recorded Endpoint, Result
measured = [
    ("CC1=C(N2CC2)C(=O)c2nc3n(c2C1=O)CCC3NC(=O)c1ccncc1 (centres undefined)", "log TGI range", 2.5),
    ("CC1=C(N2CC2)C(=O)c2nc3n(c2C1=O)CC[C@@H]3NC(=O)C1CCCN1 (some centres undefined)", "log TGI range", 2.8),
    ("CC1=C(N2CC2)C(=O)c2nc3n(c2C1=O)CC[C@@H]3NC(=O)[C@H](N)Cc1ccccc1", "log TGI range", 4),
]

// next entry
### Prompt Consider the compound CC1=C(N2CC2)C(=O)c2nc3n(c2C1=O)CC[C@@H]3NC(=O)[C@@H](Cc1ccccc1)NC(=O)[C@H](N)Cc1ccccc1 and give its measured log TGI range.
### Response 4
